Entries and their shrunken log2 fold change
Tested on: Escherichia coli TOP10;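 also: peptides expressed intracellularly from a pBAD plasmid library in pooled LB shake-flask culture, induced with 0.3% L-arabinose, DNA abundance read by NGS, three biological replicates, DESeq2 with apeglm shrinkage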
assay: shrunken log2 fold change of peptide-encoding DNA abundance (4.5 h post-induction vs induction); higher = less antimicrobial activity (less host growth inhibition)
testConditions: time post-induction: 4.5 h; library: site-saturation at positions 5, 18, 19, 20
propertyName: shrunken log2 fold change

>>> reported("RRIRTRPPRLPRPRPRPIYYPRP")
-0.818
>>> reported("RRIRSRPPRLPRPRPRPRDTPRP")
0.0657
>>> reported("RRIRQRPPRLPRPRPRPHVTPRP")
0.0406
>>> reported("RRIRVRPPRLPRPRPRPWQNPRP")
0.013
>>> reported("RRIRYRPPRLPRPRPRPGEMPRP")
-0.0218
>>> reported("RRIRIRPPRLPRPRPRPTILPRP")
-0.248
>>> reported("RRIRRRPPRLPRPRPRPHYPPRP")
0.158
>>> reported("RRIRFRPPRLPRPRPRPARSPRP")
0.336
>>> reported("RRIRHRPPRLPRPRPRPMEAPRP")
-0.0935
>>> reported("RRIRKRPPRLPRPRPRPPERPRP")
2.02
>>> reported("RRIRTRPPRLPRPRPRPVVTPRP")
0.0483
>>> reported("RRIRARPPRLPRPRPRPAYKPRP")
-0.0413
>>> reported("RRIRDRPPRLPRPRPRPLDSPRP")
0.148
>>> reported("RRIRTRPPRLPRPRPRPCEYPRP")
-0.0254
>>> reported("RRIRKRPPRLPRPRPRPLPMPRP")
0.562
>>> reported("RRIRGRPPRLPRPRPRPDTSPRP")
0.383
>>> reported("RRIRLRPPRLPRPRPRPDVLPRP")
-0.00959
>>> reported("RRIRGRPPRLPRPRPRPRRVPRP")
0.485
>>> reported("RRIRHRPPRLPRPRPRPVYRPRP")
-0.305
>>> reported("RRIRARPPRLPRPRPRPSTQPRP")
0.265
>>> reported("RRIRKRPPRLPRPRPRPGWYPRP")
-0.0717
>>> reported("RRIRHRPPRLPRPRPRPKWKPRP")
0.107
>>> reported("RRIRLRPPRLPRPRPRPPTVPRP")
0.026
>>> reported("RRIRHRPPRLPRPRPRPQFAPRP")
0.0852
>>> reported("RRIRYRPPRLPRPRPRPGRRPRP")
2.15
>>> reported("RRIRRRPPRLPRPRPRPTDLPRP")
-0.162
>>> reported("RRIRCRPPRLPRPRPRPSQQPRP")
-0.0757
>>> reported("RRIRWRPPRLPRPRPRPCLHPRP")
-0.01
>>> reported("RRIRPRPPRLPRPRPRPNRCPRP")
0.0358
>>> reported("RRIRTRPPRLPRPRPRPEWFPRP")
0.0821
>>> reported("RRIRARPPRLPRPRPRPKCEPRP")
0.367
>>> reported("RRIRIRPPRLPRPRPRPTVMPRP")
-0.0131
>>> reported("RRIRIRPPRLPRPRPRPKYCPRP")
0.00104
>>> reported("RRIRERPPRLPRPRPRPKGEPRP")
0.0173
>>> reported("RRIRHRPPRLPRPRPRPNINPRP")
-1.31
>>> reported("RRIRGRPPRLPRPRPRPEWVPRP")
0.875
>>> reported("RRIRSRPPRLPRPRPRPPLGPRP")
0.399
>>> reported("RRIRSRPPRLPRPRPRPEQKPRP")
0.0179
>>> reported("RRIRQRPPRLPRPRPRPFRKPRP")
-0.101
>>> reported("RRIRTRPPRLPRPRPRPFFEPRP")
0.123
>>> reported("RRIRERPPRLPRPRPRPQYGPRP")
-0.0797
>>> reported("RRIRYRPPRLPRPRPRPYWNPRP")
-1.63
>>> reported("RRIRNRPPRLPRPRPRPISQPRP")
-0.261
>>> reported("RRIRFRPPRLPRPRPRPSWGPRP")
-0.243
>>> reported("RRIRIRPPRLPRPRPRPVRYPRP")
0.326
>>> reported("RRIRQRPPRLPRPRPRPLWIPRP")
-0.0179
>>> reported("RRIRKRPPRLPRPRPRPQMFPRP")
-0.00577
>>> reported("RRIRSRPPRLPRPRPRPKIAPRP")
0.0525
>>> reported("RRIRNRPPRLPRPRPRPLQYPRP")
-0.0315
>>> reported("RRIRCRPPRLPRPRPRPWLVPRP")
-0.16
>>> reported("RRIRPRPPRLPRPRPRPMIIPRP")
-0.152
>>> reported("RRIRERPPRLPRPRPRPCRTPRP")
-0.203

Measured values drawn from the supplement of paper PMC9112550 for this set.
